All values here come from PubChem BioAssay (NCI).

# System: MDA-MB-435 melanoma
# test protocol: NCI-60 one-dose screen, 48 h (100 = growth as untreated, 0 = no growth, -100 = all killed)
# condition notes: 10 µM unless noted
This is part of a sample that, as a whole, favours compounds with a hit. Of some 83,000 tested, about 20% had one in any assay.
measurement name: growth (%)
Field: numeric (%). Do not append units.

CC1(C)CC(=O)C2=C(C1)N(c1ccc(OC(F)(F)F)cc1)C(N)=C(C#N)C2c1ccc(Br)cc1F (centres undefined) : 93.1
O=C(O)c1cn(C2CC2)c2cc(N3CCN(Cc4ccc5ccccc5c4O)CC3)c(F)cc2c1=O : 33.6

Query (compound): CC(=O)O[C@H]1CC2CCC3C(CC[C@@]4(C)C3C[C@H]([N+]3(C)CCCCC3)[C@@H]4OC(C)=O)[C@@]2(C)C[C@@H]1N1CCCCC1 (some centres undefined) ; field requested: growth
99.5

Another compound to check: `C=CCn1c(C)nc2ccc(Nc3nc(Nc4ccc5nc(C)n(CC=C)c5c4)c4ccccc4n3)cc21`
-78

---

# System: LOX IMVI melanoma
# test protocol: NCI-60 one-dose screen, 48 h (100 = growth as untreated, 0 = no growth, -100 = all killed)
# condition notes: 10 µM unless noted
Compounds without any hit were thinned out: in the full panel of roughly 83,000, 20% have a hit.
Catalogue of growth readings, one per entry.
Give just the number in %; leave the unit off.

Look at this compound and give its reported growth. `CCCCCOC(=O)c1c(C)[nH]c(/C=C2\N=C(c3ccc[nH]3)C=C2OC)c1C`
-99.7

What about `c1ccc2cc(C[n+]3ccn(CCCCCCCCCCn4cc[n+](Cc5ccc6ccccc6c5)c4)c3)ccc2c1` ?
-53.9

Item: `OCCn1cc(-c2nc(-c3c[nH]c4ncccc34)cs2)c2cc(F)ccc21`
65.5

Cool, now `CC(=O)n1nc(C(=O)OC(C)(C)c2ccccc2)c2ccccc21`
91.2

---

# Test system: EKVX NSCLC
# test protocol: NCI-60 one-dose screen, 48 h
# condition notes: 10 µM unless noted
This is part of a sample that, as a whole, favours compounds with a hit. Of some 83,000 tested, about 20% had one in any assay. Active and inactive are the calls of the source. How the source made its calls: active means growth percent below 10; inactive means the rest.
A correct response names exactly one class from active, inactive

Previously resolved entries follow.
C=C(C)[C@@H]1CCC[C@]2(COS(=O)(=O)c3ccc(C)cc3)CC[C@]3(C)[C@@H](CC[C@@H]4[C@@]5(C)CCCNC(C)(C)[C@@H]5CC[C@]43C)[C@@H]12 : active
CS(=O)(=O)c1ccc(-c2cnn3ccc(-c4cccc(S(=O)(=O)C5CC5)c4)nc23)cc1 : inactive
CN(/C(N)=N/N=C/c1c2ccccc2cc2ccccc12)C1CCCCC1 : inactive
COc1ccc(C2=C(Nc3ccc(C(=O)Nc4ccccc4)cc3)C(=O)N(C)C2=O)cc1 : inactive
C=CCc1c(O)c(C(=O)/C=C/c2ccccc2)c(OC)c2ccoc12 : inactive
O=C1Nc2ccccc2/C1=C/c1cccn1CCCCn1c2ccccc2c(=O)c2ccccc21 : inactive

GET /call?item= `C[C@@H](CO)[C@@H]1CCC=C2CC[C@]3(C)[C@H](CC[C@@H]4[C@@]5(C)CCCNC(C)(C)[C@@H]5CC[C@]43C)[C@H]21` returns the recorded outcome of this test.
inactive

Okay, and `CCNCCNc1cc(C2CCCCC2)c(C#N)c2nc3ccccc3n12` ?
inactive

Subsequent entry: `Cc1cc(N2CCN(CCNc3ccnc4cc(Cl)ccc34)CC2)nc(N2CCOCC2)n1`
inactive

Similarly, `COC(=O)CC[C@@H]1O[C@@H](c2cccc(C(F)(F)F)c2)[C@@H](O)[C@H]1O` ?
inactive

Next molecule: `Cc1ccc(-c2nc(N3CCCNCC3)c3oc(-c4ccccc4)nc3n2)cc1`
inactive

Input `COc1ccc(-c2cc(-c3cc(OC)c(OC)c(OC)c3)c(C#N)c(=O)n2CCCCC(=O)NO)cc1`
inactive

Entry to check: `C#CCOc1ccc2ncnc(Nc3ccc(NC(=O)C=C)cc3)c2c1`
active

Now the same for `O=C(CN1CCOCC1)Nc1nc(-c2cc3ccccc3oc2=O)cs1`
inactive

Moving on to the next molecule: `Oc1ccc(Cl)cc1/C=N\NC(=S)N/N=C/c1cc(Cl)ccc1O`
inactive

Check `COCCn1cc(-c2nc(-c3cc4cccnc4[nH]3)cs2)c2cc(OC)ccc21` too.
inactive

Same read-out for `COc1ccc(F)cc1/C=C/C(=O)/C=C(/C=C/c1cc(F)ccc1OC)OB(F)F` ?
inactive
